Data provenance is patent USRE47150.

Here the recorded variant/HC_K99L is given for each entry.
Target: T1, human tissue factor pathway inhibitor (TFPI) (human, UniProt P10646 29-304, limits assumed)
T1 construct: bought; also called hTFPI; human TFPI
T1 sequence (looked up): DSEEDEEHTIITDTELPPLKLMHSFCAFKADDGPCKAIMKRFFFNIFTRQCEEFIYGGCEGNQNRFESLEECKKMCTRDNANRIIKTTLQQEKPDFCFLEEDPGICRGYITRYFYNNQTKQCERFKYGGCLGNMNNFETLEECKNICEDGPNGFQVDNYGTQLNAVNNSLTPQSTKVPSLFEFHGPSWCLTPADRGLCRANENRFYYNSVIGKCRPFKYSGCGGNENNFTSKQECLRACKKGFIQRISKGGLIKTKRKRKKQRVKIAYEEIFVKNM
Experiment: competitive ELISA
Answer with a number only, understood to be in ratio.

Solved entries:
| binder | variant/HC_K99L, ratio |
| --- | --- |
| 2A8 HC Q1E+R30S+S35D+S55R+S56G+K99L/LC D1S+I2Y+A13S+S21T+R28P+Y48F+N51V+E80M+S89A+D91W+D92S+G93S+V94T (Fab, V domains shown) VH: EVQLVESGGGLVQPGGSLRLSCAASGFTFSSYGMDWVRQAPGKGLEWVSSIRGSRGSTYYADSVKGRFTISRDNSKNTLYLQMNSLRAEDTAVYYCARLYRYWFDYWGQGTLVTVSS VL: SYELTQPPSVSVSPGQTARITCSGDNLPNYYAHWYQQKPGQAPVVVIFYDVNRPSGIPERFSGSNSGNTATLTISGTQAMDEADYYCQAWWSSTPVFGGGTKLTVLG | 18.8 |
| 2A8-g216 (HC S31V+I51D+S55R+K99V/LC D1S+I2Y+A13S+S21T+R28P+N29K+Y48F+N51S+E80M+D91L+D92S+V94T+V96W) (Fab, V domains shown) VH: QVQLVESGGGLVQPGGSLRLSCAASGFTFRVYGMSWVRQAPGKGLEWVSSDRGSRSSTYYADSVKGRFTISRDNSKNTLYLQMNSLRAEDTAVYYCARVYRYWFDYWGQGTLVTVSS VL: SYELTQPPSVSVSPGQTARITCSGDNLPKYYAHWYQQKPGQAPVVVIFYDSNRPSGIPERFSGSNSGNTATLTISGTQAMDEADYYCQSWLSGTPWFGGGTKLTVLG | 19.6 |

Okay, now this binder:
[Q] Tell me the measured variant/HC_K99L of 2A8 HC S35D+I51D+S55R+K99V/LC Y48F+N51V (Fab, V domains shown) VH: QVQLVESGGGLVQPGGSLRLSCAASGFTFRSYGMDWVRQAPGKGLEWVSSDRGSRSSTYYADSVKGRFTISRDNSKNTLYLQMNSLRAEDTAVYYCARVYRYWFDYWGQGTLVTVSS VL: DIELTQPPSVSVAPGQTARISCSGDNLRNYYAHWYQQKPGQAPVVVIFYDVNRPSGIPERFSGSNSGNTATLTISGTQAEDEADYYCQSWDDGVPVFGGGTKLTVLG , please.
[A] 8
